target: UniProt P25090
assay text: FLIPR Ca+2 response, HEK-Gα16 cells stably expressing the human FPR2 receptor (Table 4)
Type: cell-based
measurement context: efficacy in parentheses
measure name: FPR2 (efficacy)

compound	result
CCC1(CCc2ccccc2C(=O)O)NC(=O)N(NC(=O)Nc2ccc(Br)cc2F)C1=O (stereo not drawn)	nM (1.0)
CCC[C@H](NC(=O)Nc1ccc(Br)cc1F)C(=O)NCC(=O)O	nM (0.91)
CC(C)C[C@H](NC(=O)Nc1ccc(Br)cc1)C(=O)N[C@H](C(=O)O)c1ccccc1	nM (1.0)
CC[C@H](C)[C@H](NC(=O)Nc1ccc(Br)cc1)C(=O)NCC(N)=O	nM (0.91)

Next, consider the following compound.
Form field FPR2 (efficacy), entry CCOP(=O)(CCNC(=O)CC1(C(C)C)NC(=O)N(NC(=O)Nc2ccc(Br)cc2)C1=O)OCC (stereo not drawn) : nM (1.0)

* * *

target: FPR2 (Homo sapiens (Human), UniProt P25090)
Sequence (P25090 whole entry): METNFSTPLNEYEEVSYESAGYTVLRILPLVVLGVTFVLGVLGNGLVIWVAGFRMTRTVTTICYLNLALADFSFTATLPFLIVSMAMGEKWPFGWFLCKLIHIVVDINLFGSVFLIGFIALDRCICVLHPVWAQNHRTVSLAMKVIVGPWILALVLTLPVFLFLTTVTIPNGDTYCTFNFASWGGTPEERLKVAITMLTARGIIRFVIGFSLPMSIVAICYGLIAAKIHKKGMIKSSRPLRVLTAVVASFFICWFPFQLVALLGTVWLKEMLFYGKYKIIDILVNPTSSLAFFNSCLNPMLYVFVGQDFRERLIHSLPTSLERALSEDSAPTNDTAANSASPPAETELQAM
assay text: FLIPR Ca+2 response, HEK-Gα16 cells stably expressing the human FPR2 receptor (Table 4)
Type: cell-based
measure name: pEC50
On this scale, pEC50 is minus log10 of a concentration expressed in M (mol/L).

compound	pEC50
C[S+]([O-])c1ccc(NC(=O)Nc2ccc3c(c2)C(=O)N(CCCNC(=O)OC(C)(C)C)[C@@H](c2ccc(C#N)cc2)C3)cc1 (stereo partly shown) [Compound 40]	6.99
CCC1(CCc2ccccc2C(=O)OC)NC(=O)N(NC(=O)Nc2ccc(Br)cc2)C1=O (stereo not shown) [Compound 141]	7.99
CC1(CCc2cccc(O)c2)NC(=O)N(NC(=O)Nc2ccc(Br)cc2)C1=O (stereo not shown) [Compound 108]	8.68
NC(=O)C1C(C(=O)Nc2ccc(I)cc2)C2C=CC1C21CC1 (stereo not shown) [Compound 39]	8.80
CC(C)C1(C(C)C)NC(=O)N(NC(=O)Nc2ccc(Br)cc2)C1=O [Compound 64]	8.42
O=C(Nc1ccc(Br)cc1)NC(Cc1ccccc1)C(=O)NC1CCCCNC1=O (stereo not shown) [Compound 10]	7.96
CC1(CCc2ccccc2O)NC(=O)N(NC(=O)Nc2ccc(Br)cc2F)C1=O (stereo not shown) [Compound 106]	8.40
CC(C)C[C@H](NC(=O)Nc1ccc(C(F)(F)F)cc1)C(=O)NCc1nnn[nH]1 [Compound 136]	8.43

Form field pEC50, entry CSCC[C@H](NC(=O)Nc1ccc(Br)cc1)C(=O)NCC(=O)O [Compound 144] : 8.20

Form field pEC50, entry CCOP(=O)(CCNC(=O)CC1(C(C)C)NC(=O)N(NC(=O)Nc2ccc(Br)cc2)C1=O)OCC (stereo not shown) [Compound 152] : 7.96

Form field pEC50, entry O=C(O)C1C(C(=O)Nc2ccc(I)cc2)C2CCC1C21CC1 (stereo not shown) [Compound 15] : 9.22

Form field pEC50, entry CNC(=O)C1C(C(=O)Nc2ccc(Br)cc2)C2CCC1C21CC1 (stereo not shown) [Compound 46] : 8.07

Form field pEC50, entry CCOP(=O)(CNC(=O)[C@H](Cc1ccccc1)NC(=O)Nc1ccc(Br)cc1)OCC [Compound 118] : 7.79

* * *

target: FPR2 (Homo sapiens (Human), UniProt P25090)
assay text: FPR2 Ga16-CHO EC50 (efficacy), Tables 1-3
Assay type: cell-based
measure name: pEC50
On this scale, pEC50 is minus log10 of a concentration expressed in M (mol/L).

# annotated cases, reported pEC50 shown
compound	pEC50
Cc1ccc(NC(=O)NN2C(=O)NC3(CCC(C)CC3)C2=O)cc1 (centres unmarked)	6.44
O=C(CN1C(=O)NC2(CCCCC2)C1=O)Nc1ccc(Br)cc1	6.13
CC1(C2CC2)NC(=O)N(CC(=O)Nc2ccc(Br)cc2)C1=O (centres unmarked)	6.78
CCCC1(CCC)NC(=O)N(CC(=O)Nc2ccc(Br)cc2)C1=O	6.19

Form field pEC50, entry O=C(Nc1ccc(Br)cc1)N[C@H](Cc1ccccc1)C(=O)O : 5.74

Form field pEC50, entry O=C(Nc1ccc(Br)cc1)N[C@H](C(=O)O)c1ccccc1 : 7.59

Form field pEC50, entry CC1(C)NC(=O)N(CC(=O)Nc2ccc(Br)cc2)C1=O : 6.14

Form field pEC50, entry CC1(CCc2ccccc2)NC(=O)N(NC(=O)Nc2ccccc2F)C1=O (centres unmarked) : 6.59

* * *

target: FPR2 (Homo sapiens (Human), UniProt P25090)
assay text: FLIPR Ca+2 response, HEK-Gα16 cells stably expressing the human FPR2 receptor (Table 4)
Type: cell-based
measurement context: efficacy in parentheses

compound	FPR2 (efficacy)
NC(=O)C1C(C(=O)Nc2ccc(Br)cc2)C2C=CC1C21CC1 (stereo not drawn)	nM (0.91)
CC(C)C[C@H](NC(=O)Nc1ccc(Br)cc1F)C(=O)NCC(=O)O	(1.0)
CSc1ccc(NC(=O)Nc2ccc3c(c2)C(=O)N(CCc2c[nH]cn2)C(c2ccc(Cl)cn2)C3)cc1 (stereo not drawn)	nM (0.91)
CCOP(=O)(O)CNC(=O)[C@H](CC(C)C)NC(=O)Nc1ccc(C(F)(F)F)cc1	nM (0.91)

* * *

target: UniProt:P25090
assay text: FLIPR Ca+2 response, HEK-Gα16 cells stably expressing the human FPR2 receptor (Table 4)
Format: cell-based
measurement context: efficacy in parentheses

sample smiles	FPR2 (efficacy)
CC(C)C[C@H](NC(=O)Nc1ccc(C(F)(F)F)cc1)C(=O)NCc1nnn[nH]1	nM (0.96)
CC(C)C[C@H](NC(=O)Nc1ccc(Br)cc1)C(=O)NC(CO)CO	nM (0.96)

* * *

target: FPR2 (Homo sapiens (Human), UniProt P25090)
assay text: FPR2 Ga16-CHO EC50 (efficacy), Tables 1-3
Assay type: cell-based
measure name: log10(EC50) (log10 of the value in nM)
Short version: log10 scale, EC50, nM.

# annotated cases, reported log10(EC50) shown
molecule	log10(EC50)
CCC1(C)NC(=O)N(NC(=O)Nc2ccc(Cl)cc2)C1=O (stereo not drawn)	2.20
CCC1(c2ccccc2)NC(=O)N(CC(=O)Nc2ccc(Br)cc2)C1=O (stereo not drawn)	2.72
O=C(Nc1ccc(C(F)(F)F)cc1)N[C@@H](Cc1ccccc1)C(=O)O	2.08
CC1(CCc2ccccc2)NC(=O)N(NC(=O)Nc2ccccc2)C1=O (stereo not drawn)	2.35

Next, consider the following molecule.
Entry CC(C)[C@H](NC(=O)Nc1ccc(Br)cc1)C(=O)O : log10(EC50) on FPR2 (Homo sapiens (Human), UniProt P25090) = 1.86

* * *

target: FPR2 (Homo sapiens (Human), UniProt P25090)
assay text: FPR2 Ga16-CHO EC50 (efficacy), Tables 1-3
Type: cell-based
measure name: pEC50
On this scale, pEC50 is minus log10 of a concentration expressed in M (mol/L).

# annotated cases, reported pEC50 shown
compound	measure name	quantitative readout
CCC1(CC)NC(=O)N(CC(=O)Nc2ccc(Br)cc2)C1=O	pEC50	7.02
O=C(CN1C(=O)NC2(CCCCCC2)C1=O)Nc1ccc(Br)cc1	pEC50	6.17
O=C(Nc1ccc(Br)cc1)N[C@@H](Cc1ccccc1)C(=O)O	pEC50	7.51

Next, consider the following compound.
Form field pEC50, entry O=C(Nc1ccc(Cl)cc1)NC(Cc1ccccc1)C(=O)O (stereo not shown) : 6.96
